All figures here come from ChEMBL document CHEMBL1130095.

target: Tubulin (Bos taurus, UniProt Q6B856+Q862L2+Q862F3); experiment: The compound was evaluated for inhibition of tubulin polymerization, which is purified from bovine brain; format: functional
EXPERIMENTAL_ENDPOINT: IC50 (nM)
Dear colleague, please return just the value in nM, with no unit written.

Reference set, count: 3
INPUT: What does the data say about its IC50? Entry: `C[C@]12CC[C@@H]3c4cc(OCC(F)(F)F)c(O)cc4/C(=N\O)C[C@H]3[C@@H]1CC[C@@H]2O`
OUTPUT: 2300

INPUT: Requested field: IC50. Item: `C[C@]12CC[C@@H]3c4cc(OCC(F)(F)F)c(O)cc4C(=O)C[C@H]3[C@@H]1CC[C@@H]2O`
OUTPUT: 24000

INPUT: Quick one: IC50 of `CCOc1cc2c(cc1O)/C(=N\OC)C[C@@H]1[C@@H]2CC[C@]2(C)[C@@H](O)CC[C@@H]12` ?
OUTPUT: 1400

Here's the next entry for you.
INPUT: Look up IC50 for this compound: `CCOc1cc2c(cc1O)/C(=N\O)C[C@@H]1[C@@H]2CC[C@]2(C)[C@@H](O)CC[C@@H]12`
OUTPUT: 1100

###

system: MDA-MB-435; test: In vitro cytotoxicity value corresponding to 50% growth inhibition against MDA-MB-435 (breast) cell line.; type: functional; conditions: Homo sapiens
EXPERIMENTAL_ENDPOINT: GI50 (nM)
Use nM as the unit, but write only the number.

INPUT: For the record `C[C@]12CC[C@@H]3c4cc(Br)c(O)c(Br)c4CC[C@H]3[C@@H]1CC[C@@H]2O` , what value of GI50 is listed for MDA-MB-435?
OUTPUT: 27000

INPUT: Give MDA-MB-435 GI50 for `CCOc1cc2c(cc1O)CC[C@@H]1[C@@H]2CC[C@]2(C)[C@@H](OS(=O)O[C@H]3CC[C@H]4[C@@H]5CCc6cc(O)c(OCC)cc6[C@H]5CC[C@]34C)CC[C@@H]12`
OUTPUT: 220

Please turn your attention to the following entry.
INPUT: Provide value of GI50 for this record tested with MDA-MB-435: `CC(=O)Oc1cc2c(cc1OC(C)=O)[C@H]1CC[C@]3(C)[C@@H](OC(C)=O)CC[C@H]3[C@@H]1CC2`
OUTPUT: 320

###

test system: MDA-MB-435; experiment: In vitro cytotoxicity value corresponding to 50% growth inhibition against MDA-MB-435 (breast) cell line.; assay type: functional; details: Homo sapiens
Mark fulfilled for GI50 under 2000 nM, not fulfilled if at or over.

Take a look at these entries with their results.
INPUT: # strict comparison: is reported GI50 < 2000 nM? input = `Cc1cc2cc3c(cc2o1)CC[C@@H]1[C@@H]3CC[C@]2(C)[C@@H](O)CC[C@@H]12`
OUTPUT: not fulfilled

INPUT: Does the reported GI50 of `CCOc1cc2c(cc1O)/C(=N\OC)C[C@@H]1[C@@H]2CC[C@]2(C)[C@@H](O)CC[C@@H]12` stay below 2000 nM?
OUTPUT: fulfilled

INPUT: Please check: GI50 for `CC(=O)Oc1cc2c(cc1OCC(F)(F)F)[C@H]1CC[C@]3(C)[C@@H](OC(C)=O)CC[C@H]3[C@@H]1CC2=O` , strictly under 2000 nM or not?
OUTPUT: not fulfilled

INPUT: Lab note: GI50 threshold 2000 nM. Does this molecule come in strictly under it? `C[C@]12CC[C@@H]3c4cc(OCC(F)(F)F)c(O)cc4CC[C@H]3[C@@H]1CC[C@@H]2O`
OUTPUT: fulfilled

Continuing:
INPUT: Does this molecule meet the criterion GI50 < 2000 nM? `CCOc1cc2c(cc1O)/C(=N\O)C[C@@H]1[C@@H]2CC[C@]2(C)[C@@H](O)CC[C@@H]12`
OUTPUT: fulfilled

INPUT: For `CCOc1cc2c(cc1O)CC[C@@H]1[C@@H]2CC[C@]2(C)[C@@H](N)CC[C@@H]12.Cl` , is the recorded GI50 below the cut-off of 2000 nM?
OUTPUT: fulfilled

INPUT: Say whether its GI50 is strictly beneath 2000 nM. Entry: `CCOc1cc2c(c(OCC)c1O)CC[C@@H]1[C@@H]2CC[C@]2(C)[C@@H](O)CC[C@@H]12`
OUTPUT: fulfilled
